system: asthma model mice; test: Anti-asthma pharmacodynamic experiment: airway hyperresponsiveness (Penh) after methacholine challenge; format: in vivo, female BALB/c mice; conditions: 0.3 mg/mL, 50 µL intratracheally once daily for 3 days; methacholine 6.25 mg/ml
recordedEndpoint: Penh values in mice, Methacholine concentration (mg/ml) 6.25
Quick one: just the number, no unit, thanks!

-- ask Consider the compound shown here: C[C@]12C=CC(=O)C=C1CC[C@H]1[C@@H]3C[C@H]4OC(c5ccc(CSC6CCOC6=O)cc5)O[C@@]4(C(=O)CO)[C@@]3(C)C[C@H](O)[C@@]12Cl (stereo partly shown) What is its recorded Penh values in mice, Methacholine concentration (mg/ml) 6.25?
-- reply 1.55

-- ask Tell me the measured Penh values in mice, Methacholine concentration (mg/ml) 6.25 of CCCC1O[C@@H]2C[C@H]3[C@@H]4CCC5=CC(=O)C=C[C@]5(C)[C@H]4[C@@H](O)C[C@]3(C)[C@]2(C(=O)CO)O1 (stereo partly shown) [Budesonide, reference compound] , please.
-- reply 1.65

-- ask For the compound C[C@]12C=CC(=O)C=C1[C@@H](F)C[C@H]1[C@@H]3C[C@H]4OC(c5ccc(CSC6CCOC6=O)cc5)O[C@@]4(C(=O)CO)[C@@]3(C)C[C@H](O)[C@@]12F (stereo partly shown) , what Penh values in mice, Methacholine concentration (mg/ml) 6.25 is on record?
-- reply 1.78

-- ask If you can, please state the reported Penh values in mice, Methacholine concentration (mg/ml) 6.25 value of C[C@]12C=CC(=O)C=C1[C@@H](F)C[C@H]1[C@@H]3C[C@H]4OC(c5ccc(CSC6COC(=O)C6)cc5)O[C@@]4(C(=O)CO)[C@@]3(C)C[C@H](O)[C@@]12F (stereo partly shown) .
-- reply 1.45
